- ASSAYED_TARGET: UniProt Q9QUQ5
- Sequence (Q9QUQ5 whole entry): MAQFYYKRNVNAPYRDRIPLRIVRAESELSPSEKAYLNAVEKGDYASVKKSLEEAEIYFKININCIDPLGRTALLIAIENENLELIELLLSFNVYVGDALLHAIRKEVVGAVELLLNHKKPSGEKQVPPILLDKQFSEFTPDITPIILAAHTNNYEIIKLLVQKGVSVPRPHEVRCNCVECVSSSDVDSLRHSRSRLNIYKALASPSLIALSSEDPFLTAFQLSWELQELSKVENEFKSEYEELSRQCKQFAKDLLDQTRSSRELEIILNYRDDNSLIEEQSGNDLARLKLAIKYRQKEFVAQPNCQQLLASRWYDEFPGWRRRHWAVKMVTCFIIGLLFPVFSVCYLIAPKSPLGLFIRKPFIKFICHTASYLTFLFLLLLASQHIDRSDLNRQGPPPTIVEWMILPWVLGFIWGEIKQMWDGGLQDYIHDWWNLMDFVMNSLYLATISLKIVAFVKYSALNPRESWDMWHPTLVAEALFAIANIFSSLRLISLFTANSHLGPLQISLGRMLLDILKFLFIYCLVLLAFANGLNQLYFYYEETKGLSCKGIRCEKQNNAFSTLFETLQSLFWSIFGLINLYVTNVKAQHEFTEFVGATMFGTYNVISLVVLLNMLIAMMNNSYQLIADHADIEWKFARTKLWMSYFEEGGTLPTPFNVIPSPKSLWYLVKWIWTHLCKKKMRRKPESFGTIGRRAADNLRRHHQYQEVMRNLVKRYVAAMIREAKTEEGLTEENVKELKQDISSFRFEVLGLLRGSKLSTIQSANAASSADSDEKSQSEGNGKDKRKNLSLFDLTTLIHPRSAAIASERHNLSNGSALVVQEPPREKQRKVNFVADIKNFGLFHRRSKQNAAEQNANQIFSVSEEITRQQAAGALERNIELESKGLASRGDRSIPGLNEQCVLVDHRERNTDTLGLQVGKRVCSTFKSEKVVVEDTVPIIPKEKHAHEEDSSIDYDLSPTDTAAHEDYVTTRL
- EXPERIMENTAL_PROTOCOL: mouse TRPC4 channel activators, dose response, cell-based, HEK293 TRPC4/mu-opioid, Fluo-4 calcium (AID 434937)
- Format: functional
Activity calls are given as the source filed them. The rule behind the calls is not given here.
Can you tell me EC50 for the items I'm about to list?

Lookup: Missing value: EC50, UniProt Q9QUQ5, entry Clc1cccc(OCCN2CCNCC2)c1 . Fill in?
Found: 841 nM (active)

Lookup: # query: EC50 | item COc1ccc(/C=N/NC(=O)C2COc3ccccc3O2)cc1OC (stereo not drawn) | system: UniProt Q9QUQ5
Found: 841 nM (active)

Lookup: Lab note: need EC50 with UniProt Q9QUQ5 for entry O=C(NCCCN1CCN(CCCNC(=O)c2ccc3c(c2)OCO3)CC1)c1ccc2c(c1)OCO2 , please look it up.
Found: 267 nM (active)

Lookup: Short answer please: EC50, UniProt Q9QUQ5, entry CCCOc1ccc(C(=O)NNC(=S)NC(=O)c2ccccc2)cc1
Found: 3350 nM (active)

Lookup: Could you share what EC50 was measured for CC(C)n1cnc2c(N(C)c3ccccc3)nc(N(CCN(C)C)Cc3ccccc3)nc21 , tested on UniProt Q9QUQ5?
Found: 10600 nM (active)

Lookup: For UniProt Q9QUQ5, provide EC50 of CN1CCN(c2ccc(NC(=O)c3ccc(-c4cccc([N+](=O)[O-])c4)o3)cc2)CC1 please.
Found: 299 nM (active)

Lookup: Please provide the recorded EC50 for Cc1cc2nc3s/c(=C/c4ccc(-c5ccccc5C(=O)O)o4)c(=O)n3c2cc1C , tested on UniProt Q9QUQ5.
Found: 5960 nM (active)

Lookup: // lookup EC50 | system=UniProt Q9QUQ5 | key= CCCCCc1c(O)nc(SCCN(C)C)nc1O
Found: 4220 nM (active)

Origin of values: ChEMBL document CHEMBL1201862
